# TEST_SYSTEM: NADPH oxidase 5 (Homo sapiens) (UniProt Q96PH1)
# Sequence (Q96PH1 whole entry, looked up): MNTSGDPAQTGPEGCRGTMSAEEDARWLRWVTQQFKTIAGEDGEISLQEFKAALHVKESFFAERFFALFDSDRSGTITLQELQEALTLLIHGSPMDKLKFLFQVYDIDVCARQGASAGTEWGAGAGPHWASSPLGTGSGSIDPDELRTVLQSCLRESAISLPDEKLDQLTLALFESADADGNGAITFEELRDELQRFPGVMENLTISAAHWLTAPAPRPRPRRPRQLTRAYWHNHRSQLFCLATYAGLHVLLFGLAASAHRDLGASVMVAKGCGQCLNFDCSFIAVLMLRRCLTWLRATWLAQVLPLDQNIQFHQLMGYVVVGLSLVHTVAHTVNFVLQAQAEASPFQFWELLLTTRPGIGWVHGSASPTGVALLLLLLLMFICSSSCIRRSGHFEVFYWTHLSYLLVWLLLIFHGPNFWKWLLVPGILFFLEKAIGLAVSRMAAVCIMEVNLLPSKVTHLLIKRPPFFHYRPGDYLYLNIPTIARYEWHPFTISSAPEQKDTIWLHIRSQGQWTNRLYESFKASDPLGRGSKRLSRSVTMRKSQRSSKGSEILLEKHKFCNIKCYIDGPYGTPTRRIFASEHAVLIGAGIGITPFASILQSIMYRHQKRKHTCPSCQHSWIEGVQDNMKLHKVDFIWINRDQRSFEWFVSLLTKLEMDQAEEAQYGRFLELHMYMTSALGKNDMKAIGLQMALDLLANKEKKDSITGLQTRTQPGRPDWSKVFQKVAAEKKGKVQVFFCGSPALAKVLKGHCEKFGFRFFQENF
# PROCEDURE_DETAILS: NOX5-dependent H2O2 signal modulators, primary screen, NOX inhibitor project, cell-based, HEK293-NOX5, Amplex Red fluorescence (AID 1161)
# RUN_CONDITIONS: HEK293-NOX5, ionomycin, 45 min, higher = more signal

COMPOUND	z-score
CCN1C(=O)C2CC(=O)C3C(CN(S(=O)(=O)c4ccc(C)cc4)C3c3ccc(C)cc3)C2C1=O (stereo unspecified)	-0.525
COCCOC(=O)N1C(=O)[C@@]2(c3ccccc31)[C@H](C(=O)Nc1nc3ccccc3s1)[C@H]1C(=O)O[C@H](c3ccccc3)[C@H](c3ccccc3)N1[C@@H]2c1ccccc1OCCO	1.17
COc1ccc(-c2cc3c(c(CCc4ccccc4)n2)[Si](C(C)C)(C(C)C)O[C@H]3c2ccccc2)cn1	0.0862
C[C@H]1C2[C@H](Cc3ccccc3)NC(=O)[C@]23C(=O)N[C@@H](Cc2ccccc2)C(=O)N2CCC[C@H]2C(=O)NC/C=C/CC/C=C/C3[C@@H]2O[C@]12C (stereo partly specified)	1.25
CS(=O)(=O)CCOC(=O)C1=CC(CCCO)=CC(C2CC2)N(Cc2sc3ccccc3c2Cl)C=C1C(=O)OCCS(C)(=O)=O (stereo unspecified)	-1.11
CC(C)C[C@@H]1NC(=O)[C@@H]2C[C@H](C(=O)NCCCCCCNC(=O)CS)[C@H](c3ccc(O)cc3)N2C1=O	-0.706
O=C1O[C@H](c2ccccc2)[C@H](c2ccccc2)N2[C@H]1[C@@H](C(=O)O)[C@]1(C(=O)Nc3ccccc31)[C@H]2c1ccc(OCCO)cc1	0.958
O=C1OCCC/C=C\[C@H]2OC34C=CCN(Cc5ccccc5)C(=O)[C@H]3N(CCO)C(=O)[C@@H]4C12 (stereo partly specified)	1.68
COc1cc(CO)cc(I)c1O[C@H]1C=C(C(=O)NCCO)C[C@@H](N(CCN2CCOCC2)C(=O)C2CCCO2)[C@@H]1O (stereo partly specified)	0.235
C=CCNC(=O)[C@@H]1[C@H]2C(=O)O[C@H](c3ccccc3)[C@H](c3ccccc3)N2[C@H](c2ccc(OCCO)cc2)[C@@]12C(=O)Nc1ccc(C#CCNC(N)=O)cc12	-0.268
CN1C(=O)C2C=CC(C(O)c3ccc(I)cc3)N(N(c3ccccc3)c3ccccc3)C2C1=O (stereo unspecified)	-0.585
Cc1ccc(S[C@]2(C(=O)NCc3ccccc3)CC(=O)N(Cc3ccccc3C(F)(F)F)[C@@H]2c2ccc(CO)cc2I)cc1	1.11
COCCCNC(=O)[C@@]1(c2ccc([N+](=O)[O-])cc2)CC(=O)N(C2CCCCC2)[C@@H]1c1ccc(CO)cc1I	2.07
CCc1cccc(NC(=O)O[C@H]2[C@H](OC(=O)Nc3ccccc3-c3ccccc3)[C@H](OC(=O)Nc3ccccc3-c3ccccc3)[C@@H](OC)O[C@@H]2CO)c1	-1.01
C[C@]1(C(=O)NC2CC2)c2ccccc2C(=O)N(Cc2cc(F)cc(C(F)(F)F)c2)[C@H]1c1ccc(CO)cc1	-1.46
[N-]=[N+]=NCc1ccccc1C[C@@]1(C(N)=O)N=C(c2ccc(OCCCO)cc2)O[C@@H]1c1ccccc1N=[N+]=[N-]	-1.89
Cc1ccc(S[C@]2(C(=O)NC3CC3)CC(=O)N(C3Cc4ccccc4C3)[C@@H]2c2ccc(CO)cc2I)cc1	1.41
C=C(C(=O)CC[C@H](OC(=O)c1ccccc1-c1ccccc1C(=O)O)c1ccc(OCCO)cc1)C(C)C	-2.12
C=CCNC(=O)[C@H]1[C@@H]2C(=O)O[C@@H](c3ccccc3)[C@@H](c3ccccc3)N2[C@@H](c2ccc(O)cc2)[C@]12C(=O)Nc1ccc(C#CCC(C(=O)OC)C(=O)OC)cc12	1.93
COc1c(C)cc(-c2nc(-c3ccccc3)c3c(c2C)CO[Si]3(C(C)C)C(C)C)cc1C	-2.03
COC(=O)[C@@]1(Cc2ccc(F)cc2)[C@H]2c3cc(C(=O)N4CCCC4)n(C[C@H](O)CO)c3C[C@H]2CN1C(=O)c1ccccc1	-2.49

Where do these numbers come from? They come from PubChem BioAssay.
